Molecular target: guinea-pig B2 receptor (Cavia porcellus, UniProt O70526)
Construct: Ileum segments are isolated from male guinea-pigs; tissue Iffa Credo, l'Arbresle, France (supplier of the animals); host or cells: ileum membranes of male Dunkin-Hartley guinea-pigs
Sequence (O70526 whole entry): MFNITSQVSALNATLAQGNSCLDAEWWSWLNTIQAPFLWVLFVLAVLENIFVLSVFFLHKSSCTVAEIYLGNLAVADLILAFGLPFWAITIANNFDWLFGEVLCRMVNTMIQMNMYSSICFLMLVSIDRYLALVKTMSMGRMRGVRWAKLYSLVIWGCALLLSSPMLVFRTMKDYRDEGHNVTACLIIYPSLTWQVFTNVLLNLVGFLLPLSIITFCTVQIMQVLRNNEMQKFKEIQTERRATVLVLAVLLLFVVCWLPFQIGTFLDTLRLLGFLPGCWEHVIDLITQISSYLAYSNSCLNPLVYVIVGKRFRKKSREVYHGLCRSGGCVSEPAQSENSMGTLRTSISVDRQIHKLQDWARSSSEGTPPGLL
Assay: [3H]-bradykinin binding to guinea-pig ileum membranes
Details: test compound at 10^-6 M; [3H]-bradykinin 120 pM; 50 μg ileum membrane protein; 90 min at 20° C.; read-out: Activity (%): percentage inhibition of the binding of [3H]-bradykinin
Structures can show the parent of a compound that is named as a salt.
reported-property: inhibition at 1 µM (%)

compound: Cc1cc(C)c2cccc(OCc3c(Cl)ccc(S(=O)(=O)N4CCC[C@H]4C(=O)NC4CCN(C(=O)c5ccc(C(=N)N)cc5)CC4)c3Cl)c2n1 [Example 26, bis(methanesulfonate)]
reported-property: inhibition at 1 µM
endpoint-value: 100
--
compound: Cc1cc(C)c2cccc(OCc3c(Cl)ccc(S(=O)(=O)N4CCC[C@H]4C(=O)N4CCN(C(=O)COc5ccc(C(=N)N)cc5)CC4)c3Cl)c2n1 [Example 16, dihydrochloride]
reported-property: inhibition at 1 µM
endpoint-value: 100
--
compound: Cc1ccc2cccc(OCc3c(Cl)ccc(S(=O)(=O)N4CCC[C@H]4C(=O)NCc4ccc(C(=N)N)cc4)c3Cl)c2n1 [Example 8, dihydrochloride]
reported-property: inhibition at 1 µM
endpoint-value: 96.6
--
compound: Cc1cc(C)c2cccc(OCc3c(Cl)ccc(S(=O)(=O)N4CCC[C@H]4C(=O)NC4CCN(C(=O)COc5ccc(C(=N)N)cc5)CC4)c3Cl)c2n1 [Example 28]
reported-property: inhibition at 1 µM
endpoint-value: 98
